Target: Nuclear factor erythroid 2-related factor 2 (Homo sapiens)
Sequence (whole entry): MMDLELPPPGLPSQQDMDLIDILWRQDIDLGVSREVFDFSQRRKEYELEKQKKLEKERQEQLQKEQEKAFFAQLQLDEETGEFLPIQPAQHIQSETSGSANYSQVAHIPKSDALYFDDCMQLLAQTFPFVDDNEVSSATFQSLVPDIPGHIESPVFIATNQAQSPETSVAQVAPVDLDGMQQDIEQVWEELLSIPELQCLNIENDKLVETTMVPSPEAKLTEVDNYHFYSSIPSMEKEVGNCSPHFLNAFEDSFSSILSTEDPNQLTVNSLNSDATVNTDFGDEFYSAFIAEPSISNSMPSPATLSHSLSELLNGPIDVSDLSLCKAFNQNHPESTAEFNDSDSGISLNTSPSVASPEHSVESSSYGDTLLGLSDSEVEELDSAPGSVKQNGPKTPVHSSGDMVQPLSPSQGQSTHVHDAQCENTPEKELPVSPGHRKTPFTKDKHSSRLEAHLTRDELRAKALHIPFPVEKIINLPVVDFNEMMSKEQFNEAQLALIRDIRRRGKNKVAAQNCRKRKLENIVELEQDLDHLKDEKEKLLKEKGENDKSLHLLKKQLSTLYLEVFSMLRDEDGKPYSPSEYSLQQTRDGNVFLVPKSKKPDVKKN
Assay: Activation of Nrf2 in human HepG2-ARE-C8 cells assessed as induction of ARE-mediated luciferase activity at 40 uM after 24 hrs by luciferase reporter gene assay relative to control
Type: cell-based
Kind request: treat 6 as inclusive, so Activity at 6 or higher is condition met, anything lower is condition not met.

Worked set:
1) CN(C)C=O    condition not met
2) Cc1cccc(-c2noc(-c3ccc(F)c(F)c3)n2)n1    condition not met
3) Fc1ccc(-c2nc(-c3cnccn3)no2)cc1F    condition not met
4) COc1cc(OC)cc(-c2noc(-c3ccc(F)c(F)c3)n2)c1    condition not met
5) Fc1ccc(-c2nc(-c3ccc4nc[nH]c4c3)no2)cc1Cl    condition met

Q: Evaluate Fc1ccc(-c2noc(-c3ccc(F)c(F)c3)n2)nc1 : Activity at minimum 6?
A: condition not met

###

// reported Activity per item
Molecular target: Nuclear factor erythroid 2-related factor 2 (Homo sapiens)
Assay: Activation of Nrf2 in human HepG2-ARE-C8 cells assessed as induction of ARE-mediated luciferase activity at 0.1 uM after 24 hrs by luciferase reporter gene assay relative to control
Assay type: cell-based
I'd appreciate a reply containing only the number, no unit.

Some compounds with recorded Activity:
1. Clc1ccc(-c2nc(-c3ccc4nc[nH]c4c3)no2)cc1    0.72
2. Fc1ccc(F)c(-c2nc(-c3ccc4nc[nH]c4c3)no2)c1    4.15
3. Cc1ccc(-c2noc(-c3ccc(F)c(F)c3)n2)cc1    1.22
4. Fc1ccc(-c2nc(-c3ccccc3F)no2)cc1F    3.96
5. CC(=O)c1ccc(-c2noc(-c3ccc(F)c(F)c3)n2)cc1    2.03

Q: Please tell me the measured Activity for Fc1ccc(-c2noc(-c3ccc(F)c(F)c3)n2)nc1 ; system: Nuclear factor erythroid 2-related factor 2 (Homo sapiens).
A: 1.97

Q: Please tell me the measured Activity for Fc1ccc(-c2nc(-c3ccc4nc[nH]c4c3)no2)c(Cl)c1 ; system: Nuclear factor erythroid 2-related factor 2 (Homo sapiens).
A: 2.98

Q: Please tell me the measured Activity for Fc1cc(F)c(-c2nc(-c3ccc4nc[nH]c4c3)no2)cc1F ; system: Nuclear factor erythroid 2-related factor 2 (Homo sapiens).
A: 1.86

###

Target: Nuclear factor erythroid 2-related factor 2 (Homo sapiens) (UniProt Q16236)
Sequence (whole entry): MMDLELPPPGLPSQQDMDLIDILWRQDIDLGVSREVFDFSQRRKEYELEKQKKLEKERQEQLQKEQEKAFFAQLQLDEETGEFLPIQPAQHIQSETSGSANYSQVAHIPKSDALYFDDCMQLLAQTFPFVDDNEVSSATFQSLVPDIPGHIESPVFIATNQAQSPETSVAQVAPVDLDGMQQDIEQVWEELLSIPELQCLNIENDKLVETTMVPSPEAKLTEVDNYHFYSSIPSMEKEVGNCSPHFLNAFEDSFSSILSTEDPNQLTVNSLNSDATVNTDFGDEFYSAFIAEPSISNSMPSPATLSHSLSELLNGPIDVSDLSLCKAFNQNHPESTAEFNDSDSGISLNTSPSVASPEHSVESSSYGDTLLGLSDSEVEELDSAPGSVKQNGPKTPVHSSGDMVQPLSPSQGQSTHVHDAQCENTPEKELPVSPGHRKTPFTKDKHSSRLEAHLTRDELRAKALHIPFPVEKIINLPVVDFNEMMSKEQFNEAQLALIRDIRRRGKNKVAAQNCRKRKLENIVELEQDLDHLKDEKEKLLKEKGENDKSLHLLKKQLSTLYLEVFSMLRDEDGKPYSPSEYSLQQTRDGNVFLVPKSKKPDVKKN
Test: Activation of Nrf2 in human HepG2-ARE-C8 cells assessed as induction of ARE-mediated luciferase activity at 20 uM after 24 hrs by luciferase reporter gene assay relative to control
Assay type: cell-based
# label = yes (1) if Activity < 4 else no (0)

Worked set:
1) Fc1ccc(-c2nc(-c3cccnc3)no2)cc1F    yes (1)
2) Fc1ccc(-c2nc(-c3ccc4nc[nH]c4c3)no2)cc1F    no (0)

Please look at the following molecule next.
Q: Field: below-cutoff. Rule: recorded Activity strictly less than 4. Subject: CC(C)(C)c1cc(O)ccc1O
A: yes (1)

###

// reported Activity per item
Biological target: Nuclear factor erythroid 2-related factor 2 (Homo sapiens)
Sequence (whole entry): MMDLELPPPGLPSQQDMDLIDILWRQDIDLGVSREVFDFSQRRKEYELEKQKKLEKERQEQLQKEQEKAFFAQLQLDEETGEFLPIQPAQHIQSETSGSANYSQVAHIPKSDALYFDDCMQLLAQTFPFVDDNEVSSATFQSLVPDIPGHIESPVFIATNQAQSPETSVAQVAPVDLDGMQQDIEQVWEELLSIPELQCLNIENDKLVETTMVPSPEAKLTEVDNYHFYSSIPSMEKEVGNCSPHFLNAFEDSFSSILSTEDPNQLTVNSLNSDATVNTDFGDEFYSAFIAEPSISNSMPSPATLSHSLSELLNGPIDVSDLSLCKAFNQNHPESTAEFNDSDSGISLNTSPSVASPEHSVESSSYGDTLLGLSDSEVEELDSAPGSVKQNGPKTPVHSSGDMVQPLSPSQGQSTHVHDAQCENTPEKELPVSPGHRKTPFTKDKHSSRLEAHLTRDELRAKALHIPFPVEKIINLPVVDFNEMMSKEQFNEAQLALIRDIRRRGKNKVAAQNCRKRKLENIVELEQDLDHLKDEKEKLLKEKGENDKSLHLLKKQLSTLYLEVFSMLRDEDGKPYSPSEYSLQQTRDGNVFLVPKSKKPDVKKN
Experiment: Activation of Nrf2 in human HepG2-ARE-C8 cells assessed as induction of ARE-mediated luciferase activity at 1 uM after 24 hrs by luciferase reporter gene assay relative to control
Assay type: cell-based

1) Fc1ccc(-c2nc(-c3ccc4nc[nH]c4c3)no2)c(Br)c1    4.18
2) Fc1ccc(-c2nc(-c3ncccn3)no2)cc1F    1.07

Q: Output Activity of Fc1ccc(-c2noc(-c3ccc(F)c(F)c3)n2)cc1F
A: 1.73

Q: Output Activity of Fc1ccc(-c2nc(-c3cnccn3)no2)cc1F
A: 1.95

Q: Output Activity of Fc1ccc(F)c(-c2nc(-c3ccc4nc[nH]c4c3)no2)c1
A: 5.24

Q: Output Activity of CC(=O)c1ccc(-c2noc(-c3ccc(F)c(F)c3)n2)cc1
A: 2.04

Q: Output Activity of Fc1ccc(-c2nc(-c3ccc4ccccc4c3)no2)cc1F
A: 1.52

Q: Output Activity of Cc1ccc(-c2noc(-c3ccc(F)c(F)c3)n2)cn1
A: 16.1

###

// reported Activity per item
Biological target: Nuclear factor erythroid 2-related factor 2 (Homo sapiens) (UniProt Q16236)
Sequence (whole entry): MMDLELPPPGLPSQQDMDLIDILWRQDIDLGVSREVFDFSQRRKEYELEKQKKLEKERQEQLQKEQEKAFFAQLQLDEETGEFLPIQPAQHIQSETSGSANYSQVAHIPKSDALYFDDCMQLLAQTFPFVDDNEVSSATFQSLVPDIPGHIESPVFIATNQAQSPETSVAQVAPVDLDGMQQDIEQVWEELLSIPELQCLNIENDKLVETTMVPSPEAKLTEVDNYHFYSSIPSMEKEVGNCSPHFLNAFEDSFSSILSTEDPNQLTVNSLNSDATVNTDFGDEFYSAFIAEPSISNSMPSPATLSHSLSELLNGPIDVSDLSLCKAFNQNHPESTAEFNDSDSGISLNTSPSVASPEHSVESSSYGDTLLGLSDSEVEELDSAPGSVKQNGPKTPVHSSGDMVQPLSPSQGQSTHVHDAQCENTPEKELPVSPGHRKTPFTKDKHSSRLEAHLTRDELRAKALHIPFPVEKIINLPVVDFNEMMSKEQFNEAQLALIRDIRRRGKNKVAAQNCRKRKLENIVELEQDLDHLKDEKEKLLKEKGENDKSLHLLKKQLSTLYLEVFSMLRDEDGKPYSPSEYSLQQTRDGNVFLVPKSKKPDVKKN
Assay: Activation of Nrf2 in human HepG2-ARE-C8 cells assessed as induction of ARE-mediated luciferase activity at 80 uM after 24 hrs by luciferase reporter gene assay relative to control
Type: cell-based
I'd appreciate a reply containing only the number, no unit.

1. Fc1cccc(-c2noc(-c3ccc(F)c(F)c3)n2)c1    5.46
2. Fc1ccc(-c2noc(-c3ccc(F)c(F)c3)n2)nc1    6.35
3. Fc1ccc(-c2nc(-c3ccc(Br)cc3)no2)cc1F    18.2
4. COc1cc(OC)cc(-c2noc(-c3ccc(F)c(F)c3)n2)c1    4.45
5. Clc1ccc(-c2nc(-c3ccc4nc[nH]c4c3)no2)cc1    14.1

Q: Output Activity of Fc1ccc(-c2nc(-c3ccc(Cl)cc3)no2)cc1F
A: 9.95

Q: Output Activity of Brc1ccc(-c2nc(-c3ccc4nc[nH]c4c3)no2)cc1
A: 2.75
